Data provenance: paper PMC8568530

System: HCT-116
protocol description: MTT antiproliferative assay, HCT-116
Format: cell-based
condition parameters: Homo sapiens, colorectal carcinoma HCT-116
pIC50: −log10 of the molar value.
pIC50 vs 5: at or above is y, below is n.

>  <compound>
O=C(N/N=C/c1c(Cl)cccc1Cl)c1ccc(NC(=O)c2cccnc2)cc1 [Compound 11e]

>  <discrete label>
n

$$$$
>  <compound>
O=C(N/N=C/c1ccc(O)cc1)c1ccc(NC(=O)c2cccnc2)cc1 [Compound 11h]

>  <discrete label>
n

$$$$
>  <compound>
O=C(NNC(=O)C(F)(F)F)c1ccc(NC(=O)c2cccnc2)cc1

>  <discrete label>
y

$$$$
>  <compound>
O=C(Nc1ccc(Cl)cc1)c1ccc(NC(=O)c2cccnc2)cc1

>  <discrete label>
n

$$$$

----------
Tested on: HCT-116
protocol description: MTT antiproliferative assay, HCT-116
Assay type: cell-based
condition parameters: Homo sapiens, colorectal carcinoma HCT-116
readout type: IC50 (µM)

>  <compound>
Cc1ccc(NC(=O)c2ccc(NC(=O)c3cccnc3)cc2)cc1 [Compound 7j]

>  <experimental target>
HCT-116

>  <readout type>
IC50

>  <result value>
15.1

$$$$
>  <compound>
CN(C)c1ccc(/C=N/NC(=O)c2ccc(NC(=O)c3cccnc3)cc2)cc1 [Compound 11g]

>  <experimental target>
HCT-116

>  <readout type>
IC50

>  <result value>
4.8

$$$$
>  <compound>
COc1ccc(NC(=O)c2ccc(NC(=O)c3cccnc3)cc2)cc1 [Compound 7b]

>  <experimental target>
HCT-116

>  <readout type>
IC50

>  <result value>
2.54

$$$$
>  <compound>
Cc1cccc(NC(=O)c2ccc(NC(=O)c3cccnc3)cc2)c1 [Compound 7h]

>  <experimental target>
HCT-116

>  <readout type>
IC50

>  <result value>
22.7

$$$$
>  <compound>
O=C(CSc1nnc(-c2cccnc2)o1)NCc1ccccc1 [Compound 18c]

>  <experimental target>
HCT-116

>  <readout type>
IC50

>  <result value>
21.7

$$$$
>  <compound>
O=C(Nc1ccc(C(=O)Nc2ccc(Cl)cc2Cl)cc1)c1cccnc1 [Compound 7g]

>  <experimental target>
HCT-116

>  <readout type>
IC50

>  <result value>
31.7

$$$$
>  <compound>
COc1cccc(NC(=O)c2ccc(NC(=O)c3cccnc3)cc2)c1 [Compound 7a]

>  <experimental target>
HCT-116

>  <readout type>
IC50

>  <result value>
1.46

$$$$
>  <compound>
O=C(CSc1nnc(-c2cccnc2)o1)Nc1ccccc1 [Compound 18b]

>  <experimental target>
HCT-116

>  <readout type>
IC50

>  <result value>
4.19

$$$$
>  <compound>
Cc1ccccc1NC(=O)c1ccc(NC(=O)c2cccnc2)cc1 [Compound 7f]

>  <experimental target>
HCT-116

>  <readout type>
IC50

>  <result value>
18.3

$$$$
>  <compound>
O=C(N/N=C/c1ccc(F)cc1)c1ccc(NC(=O)c2cccnc2)cc1 [Compound 11a]

>  <experimental target>
HCT-116

>  <readout type>
IC50

>  <result value>
17.2

$$$$
>  <compound>
O=C(Nc1ccccc1)c1ccc(NC(=O)c2cccnc2)cc1 [Compound 7d]

>  <experimental target>
HCT-116

>  <readout type>
IC50

>  <result value>
31.5

$$$$
>  <compound>
O=C(Nc1ccc(F)cc1)c1ccc(NC(=O)c2cccnc2)cc1 [Compound 7l]

>  <experimental target>
HCT-116

>  <readout type>
IC50

>  <result value>
2.75

$$$$
>  <compound>
Cc1ccc(NC(=O)c2ccc(NC(=O)c3cccnc3)cc2)c(C)c1 [Compound 7k]

>  <experimental target>
HCT-116

>  <readout type>
IC50

>  <result value>
18.7

$$$$
>  <compound>
COc1ccc(/C=N/NC(=O)c2ccc(NC(=O)c3cccnc3)cc2)cc1 [Compound 11d]

>  <experimental target>
HCT-116

>  <readout type>
IC50

>  <result value>
1.94

$$$$
>  <compound>
COc1ccccc1NC(=O)c1ccc(NC(=O)c2cccnc2)cc1 [Compound 7c]

>  <experimental target>
HCT-116

>  <readout type>
IC50

>  <result value>
15.3

$$$$
>  <compound>
CNC(=O)c1cc(Oc2ccc(NC(=O)Nc3ccc(Cl)c(C(F)(F)F)c3)cc2)ccn1 [Sorafenib, reference compound]

>  <experimental target>
HCT-116

>  <readout type>
IC50

>  <result value>
5.28

$$$$
>  <compound>
O=C(CSc1nnc(-c2cccnc2)o1)Nc1ccc(Cl)cc1 [Compound 18a]

>  <experimental target>
HCT-116

>  <readout type>
IC50

>  <result value>
5.13

$$$$
>  <compound>
O=C(Nc1ccc(C(=O)NC2CCCCC2)cc1)c1cccnc1 [Compound 5]

>  <experimental target>
HCT-116

>  <readout type>
IC50

>  <result value>
1.6

$$$$
>  <compound>
O=C(N/N=C/c1ccccc1Cl)c1ccc(NC(=O)c2cccnc2)cc1 [Compound 11f]

>  <experimental target>
HCT-116

>  <readout type>
IC50

>  <result value>
3.47

$$$$

----------
System: Bcl-2
protocol description: Bcl-2 level in HepG-2 cells
Type: cell-based, human
condition parameters: HepG-2 cells treated with compound
Param label: returns Yes when Bcl-2 Conc. < 2 pg/mL, returns No otherwise, including exact equality.

>  <molecule>
COc1ccc(/C=N/NC(=O)c2ccc(NC(=O)c3cccnc3)cc2)cc1 [Compound 11d]

>  <discrete label>
Yes

$$$$
>  <molecule>
CN(C)c1ccc(/C=N/NC(=O)c2ccc(NC(=O)c3cccnc3)cc2)cc1 [Compound 11g]

>  <discrete label>
No

$$$$
>  <molecule>
COc1ccc(NC(=O)c2ccc(NC(=O)c3cccnc3)cc2)cc1 [Compound 7b]

>  <discrete label>
Yes

$$$$
>  <molecule>
O=C(Nc1ccc(F)cc1)c1ccc(NC(=O)c2cccnc2)cc1 [Compound 7l]

>  <discrete label>
No

$$$$
>  <molecule>
O=C(NNC(=O)C(F)(F)F)c1ccc(NC(=O)c2cccnc2)cc1 [Compound 10]

>  <discrete label>
No

$$$$
>  <molecule>
O=C(Nc1ccc(C(=O)NC2CCCCC2)cc1)c1cccnc1 [Compound 5]

>  <discrete label>
Yes

$$$$
>  <molecule>
COc1cccc(NC(=O)c2ccc(NC(=O)c3cccnc3)cc2)c1 [Compound 7a]

>  <discrete label>
Yes

$$$$
>  <molecule>
O=C(N/N=C/c1ccccc1Cl)c1ccc(NC(=O)c2cccnc2)cc1 [Compound 11f]

>  <discrete label>
No

$$$$
>  <molecule>
O=C(N/N=C/c1ccc([N+](=O)[O-])cc1)c1ccc(NC(=O)c2cccnc2)cc1 [Compound 11c]

>  <discrete label>
No

$$$$
>  <molecule>
O=C(CSc1nnc(-c2cccnc2)o1)Nc1ccc(Cl)cc1 [Compound 18a]

>  <discrete label>
No

$$$$
>  <molecule>
O=C(CSc1nnc(-c2cccnc2)o1)Nc1ccccc1 [Compound 18b]

>  <discrete label>
No

$$$$

----------
Listed here are molecules together with their documented IC50.
experimental target: VEGFR-2 (Homo sapiens)
Sequence (P35968 20-1356): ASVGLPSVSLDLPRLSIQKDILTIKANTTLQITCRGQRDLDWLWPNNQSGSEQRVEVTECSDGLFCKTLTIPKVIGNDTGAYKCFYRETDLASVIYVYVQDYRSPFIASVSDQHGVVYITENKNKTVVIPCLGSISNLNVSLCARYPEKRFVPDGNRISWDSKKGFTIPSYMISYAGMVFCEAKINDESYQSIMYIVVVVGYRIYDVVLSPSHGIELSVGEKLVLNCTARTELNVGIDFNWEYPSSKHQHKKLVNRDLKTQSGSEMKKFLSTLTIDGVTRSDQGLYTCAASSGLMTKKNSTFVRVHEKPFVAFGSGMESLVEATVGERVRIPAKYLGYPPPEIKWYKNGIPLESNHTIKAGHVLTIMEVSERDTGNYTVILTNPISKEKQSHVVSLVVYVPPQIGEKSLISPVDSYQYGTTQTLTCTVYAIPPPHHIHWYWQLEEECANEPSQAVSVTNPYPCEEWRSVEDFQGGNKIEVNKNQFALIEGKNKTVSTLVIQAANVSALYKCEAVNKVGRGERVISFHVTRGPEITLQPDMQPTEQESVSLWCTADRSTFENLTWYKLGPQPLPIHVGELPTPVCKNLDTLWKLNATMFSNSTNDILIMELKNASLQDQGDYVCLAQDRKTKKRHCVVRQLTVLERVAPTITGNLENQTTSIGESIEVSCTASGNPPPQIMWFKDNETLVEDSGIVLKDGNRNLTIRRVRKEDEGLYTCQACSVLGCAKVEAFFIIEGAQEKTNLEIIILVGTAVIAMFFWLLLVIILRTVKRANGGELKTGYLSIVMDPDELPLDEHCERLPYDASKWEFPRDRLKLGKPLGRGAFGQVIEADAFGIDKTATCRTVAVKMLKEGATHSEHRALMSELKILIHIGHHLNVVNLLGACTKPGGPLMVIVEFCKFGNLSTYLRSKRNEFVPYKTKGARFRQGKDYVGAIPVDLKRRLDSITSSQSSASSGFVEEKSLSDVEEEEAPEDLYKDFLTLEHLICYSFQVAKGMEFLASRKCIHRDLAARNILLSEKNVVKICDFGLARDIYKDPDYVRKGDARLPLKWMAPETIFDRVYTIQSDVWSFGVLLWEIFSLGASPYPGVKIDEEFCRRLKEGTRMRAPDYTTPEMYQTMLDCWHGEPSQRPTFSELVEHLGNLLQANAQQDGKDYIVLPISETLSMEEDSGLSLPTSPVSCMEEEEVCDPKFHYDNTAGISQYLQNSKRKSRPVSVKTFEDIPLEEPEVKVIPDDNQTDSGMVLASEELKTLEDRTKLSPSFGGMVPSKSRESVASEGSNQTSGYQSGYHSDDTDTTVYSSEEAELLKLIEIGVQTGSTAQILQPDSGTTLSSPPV

>  <molecule>
COc1ccc(/C=N/NC(=O)c2ccc(NC(=O)c3cccnc3)cc2)cc1 [Compound 11d]

>  <experimental target>
VEGFR-2 (Homo sapiens)

>  <IC50 / µM>
2.74

$$$$
>  <molecule>
O=C(N/N=C/c1ccccc1Cl)c1ccc(NC(=O)c2cccnc2)cc1 [Compound 11f]

>  <experimental target>
VEGFR-2 (Homo sapiens)

>  <IC50 / µM>
4.17

$$$$
>  <molecule>
O=C(CSc1nnc(-c2cccnc2)o1)Nc1ccc(Cl)cc1 [Compound 18a]

>  <experimental target>
VEGFR-2 (Homo sapiens)

>  <IC50 / µM>
5.23

$$$$
>  <molecule>
CN(C)c1ccc(/C=N/NC(=O)c2ccc(NC(=O)c3cccnc3)cc2)cc1 [Compound 11g]

>  <experimental target>
VEGFR-2 (Homo sapiens)

>  <IC50 / µM>
6.12

$$$$
>  <molecule>
O=C(CSc1nnc(-c2cccnc2)o1)Nc1ccccc1 [Compound 18b]

>  <experimental target>
VEGFR-2 (Homo sapiens)

>  <IC50 / µM>
6.57

$$$$
>  <molecule>
O=C(N/N=C/c1ccc([N+](=O)[O-])cc1)c1ccc(NC(=O)c2cccnc2)cc1 [Compound 11c]

>  <experimental target>
VEGFR-2 (Homo sapiens)

>  <IC50 / µM>
8.09

$$$$

----------
Recorded measurements of melting point, one per entry
readout type: melting point

>  <molecule>
O=C(N/N=C/c1ccc(F)cc1)c1ccc(NC(=O)c2cccnc2)cc1 [Compound 11a]

>  <result value>
263 to 265 °C

$$$$
>  <molecule>
O=C(CSc1nnc(-c2cccnc2)o1)NCc1ccccc1 [Compound 18c]

>  <result value>
167 to 169 °C

$$$$
>  <molecule>
O=C(Nc1ccc(C(=O)Nc2ccccc2[N+](=O)[O-])cc1)c1cccnc1

>  <result value>
198 to 201 °C

$$$$
>  <molecule>
O=C(Nc1ccc(C(=O)Nc2ccc(Cl)cc2Cl)cc1)c1cccnc1

>  <result value>
189 to 192 °C

$$$$
>  <molecule>
O=C(Nc1ccccc1)c1ccc(NC(=O)c2cccnc2)cc1

>  <result value>
232 to 235 °C

$$$$
>  <molecule>
Cc1ccc(NC(=O)c2ccc(NC(=O)c3cccnc3)cc2)c(C)c1

>  <result value>
254 to 256 °C

$$$$
>  <molecule>
O=C(NCc1ccccc1)c1ccc(NC(=O)c2cccnc2)cc1

>  <result value>
229 to 232 °C

$$$$
>  <molecule>
Cc1cccc(NC(=O)c2ccc(NC(=O)c3cccnc3)cc2)c1

>  <result value>
217 to 219 °C

$$$$
>  <molecule>
O=C(N/N=C/c1ccccc1)c1ccc(NC(=O)c2cccnc2)cc1 [Compound 11b]

>  <result value>
260 to 262 °C

$$$$
>  <molecule>
Cc1ccc(NC(=O)c2ccc(NC(=O)c3cccnc3)cc2)cc1

>  <result value>
219 to 222 °C

$$$$
>  <molecule>
COc1ccccc1NC(=O)c1ccc(NC(=O)c2cccnc2)cc1

>  <result value>
185 to 187 °C

$$$$
>  <molecule>
O=C(N/N=C/c1ccc(O)cc1)c1ccc(NC(=O)c2cccnc2)cc1 [Compound 11h]

>  <result value>
256 to 259 °C

$$$$
>  <molecule>
Cc1ccccc1NC(=O)c1ccc(NC(=O)c2cccnc2)cc1

>  <result value>
194 to 197 °C

$$$$
>  <molecule>
O=C(N/N=C/c1c(Cl)cccc1Cl)c1ccc(NC(=O)c2cccnc2)cc1 [Compound 11e]

>  <result value>
283 to 285 °C

$$$$
>  <molecule>
O=C(Nc1ccc(Cl)cc1)c1ccc(NC(=O)c2cccnc2)cc1

>  <result value>
272 to 274 °C

$$$$
